Tested on: PANC-1 (pancreatic cancer)
Test: FMCA, PANC-1
Format: cell-based
Conditions: Homo sapiens, PANC-1 pancreatic cancer cells
Binary call on EC50 with cut-off 900 nM: strictly below means Yes, and equality or higher means No.

>  <Compound>
COc1ccc2[nH]cc(CCNc3nccc(Nc4ccc5[nH]c(CO)cc5c4)n3)c2c1 [Example 15]

>  <Group>
No

$$$$
>  <Compound>
COc1ccc2[nH]cc(CCNc3nccc(Nc4ccc5[nH]c(C)nc5c4)n3)c2c1 [Example 19]

>  <Group>
No

$$$$
>  <Compound>
CCOc1ccc2[nH]cc(CCNc3nccc(Nc4ccc5[nH]c(C)cc5c4)n3)c2c1 [Example 5]

>  <Group>
Yes

$$$$
>  <Compound>
COc1ccc2[nH]cc(CCNc3nccc(Nc4ccc5c(c4)cc(C)n5C)n3)c2c1 [Example 13]

>  <Group>
Yes

$$$$
>  <Compound>
COc1ccc2[nH]cc(CCNc3nccc(Nc4ccc5[nH]c(C)cc5c4)n3)c2c1 [Example 4]

>  <Group>
No

$$$$

All figures here come from patent US9006241B2.
